Sourced from patent US20230383269A1

Target: the molecule itself
Test: Blue-Native-PAGE, oligomeric conformation (self-association of identical chains)
Procedure: Comparison of the native molecular weight (oligomeric conformation) between single purified zearalenone-cleaving polypeptides was done via Blue-Native-PAGE. […] The oligomeric state of selected zearalenone-cleaving polypeptides was determined by size exclusion chromatography, SEC-MALS or X-Ray crystallography. […] The oligomeric conformation of the zearalenone-cleaving polypeptides was determined relatively to the migration of homo-dimeric and homo-tetrameric peptides.

{"columns": ["protein", "binding result"],
 "data": [
  ["alpha/beta hydrolase variant of SEQ ID NO: 27 (N167T, F168Y, S174C, D179E, A182C, A183R, K186R, A187R, F218Y, H225S) (enzyme, homo-tetramer; also called zearalenone-cleaving polypeptide) MTDQSPETRDIFVPHAFEEQQVDLGEVVMNYVEAGSADHPALLLLPEQTGSWWSYEPVIGLLAESFHVFAVDIRGQGRSTWTPKRYSLDNFGNDLVRFISLVVKRPVIVSGNSSGGVLAAWLSAYAMPGQIRAALCEDTPFFASELVPAHGHSVRQAAGPAFELYRTYLGDQWCVADWEGFCRAARRSPSKIMSLFPSSDEPPQNLKEYDPEWARAFYEGTVALSCPHDLMLSQVKTPILITHHARAVDPHSGDLLGALSDFQAERAQAIIESAGVPVEYASFPDALHMMHQFEPERFAEVLTSWVARLPADTPGAHHHHHH", "binds"],
  ["alpha/beta hydrolase variant of SEQ ID NO: 17 (D10N, N167T, F168Y, S174C, D179E, A182C, A183R, K186R, A187R, F218Y) (enzyme, homo-tetramer; also called zearalenone-cleaving polypeptide) MTDQSPETRNIFVPHAFEEQQVDLGEVVMNYVEAGSADHPALLLLPEQTGSWWSYEPVIGLLAESFHVFAVDIRGQGRSTWTPKRYSLDNFGNDLVRFISLVVKRPVIVSGNSSGGVLAAWLSAYAMPGQIRAALCEDTPFFASELVPAHGHSVRQAAGPAFELYRTYLGDQWCVADWEGFCRAARRSPSKIMSLFPSSDEPPQNLKEYDPEWARAFYEGTVALHCPHDLMLSQVKTPILITHHARAVDPHSGDLLGALSDFQAERAQAIIESAGVPVEYASFPDALHMMHQFEPERFAEVLTSWVARLPADTPGAHHHHHH", "binds"]
]}
